ASSAY OVERVIEW: Quantitative High-Throughput drug screen in 47 multiple myeloma cell lines against the NCATS MIPE library collection: Karpas620_DSMZ cell viability assay (AID 1918959); further: nearly all actives have a fitted effect of over 30% in size
CONDITION: Karpas620 myeloma viability, CellTiter-Glo ATP luminescence, 48 h; series mostly up to 45.8 µM
Results filed as inconclusive are left out. Calls of active or inactive are those of the source. The call rests on the fitted dose curve; in most records, active means well fitted cell-killing curve with a large enough effect; inconclusive means small, poorly fitted or top-dose-only effect, or effect the other way; inactive means no such curve, though single readings can be large or run the other way.
Assign a class; possible classes are active, inactive

Check out these entries, answers already filled in.
CC[C@@]1(O)C(=O)OCc2c1cc1n(c2=O)Cc2cc3cc(O)ccc3nc2-1	active
CC(C)C[C@H](NC(=O)CNC(=O)c1cc(Cl)ccc1Cl)B(O)O	active
Nc1ccccc1NC(=O)c1ccc(CNc2nccc(-c3cccnc3)n2)cc1	active
CC=C1NC(=O)[C@H]2CSSCCC=C[C@H](CC(=O)N[C@H](C(C)C)C(=O)N2)OC(=O)[C@H](C(C)C)NC1=O	active
Cc1cn2cc(C(=O)N(C)CCO)cc(N[C@@H]3CCOc4cccc(C)c43)c2n1	inactive

Could you now consider this next molecule?
Short answer needed: outcome of this test for O=C(C=Cc1cccc(S(=O)(=O)Nc2ccccc2)c1)NO ?
active
